I'd appreciate it if you could supply inhibition values for the items below.
# Tested on: Receptor-type tyrosine-protein kinase FLT3 (Homo sapiens), P36888 [D835Y]
# experimental setup: at 1 µM
Answers are plain numbers, in %.

>>> number("CNC(=O)c1cccc(C#Cc2cncnc2Nc2ccc(OCc3cccc(F)c3)c(Cl)c2)c1")
0.94
>>> number("CCc1nn2ncccc2c1-c1ccnc(NC2CC2)n1")
8.73
>>> number("CNC(=O)c1cc(-c2ccc(F)cc2)cc(-c2ccc(S(=O)(=O)N3CCCC3)cc2)c1N")
5.93

Each molecule below has a recorded value; state its inhibition.
1. Cc1ccc(O)cc1Nc1ccnc2cc(-c3ccccn3)ccc12
2. COc1ccc2c(-c3ccnc(Nc4cccc(OC(F)(F)F)c4)n3)cnn2n1
3. CCCN1CCC(c2ccc(Nc3nc(Nc4cc(F)ccc4C(N)=O)c4cc[nH]c4n3)c(OC)c2)CC1

Result block:
1. 4.47
2. 15.6
3. 56

Each molecule below has a recorded value; state its inhibition.
1. COc1ccc(-c2cc(-c3c[nH]nc3-c3ccccn3)ccn2)cc1
2. Cc1ccc2c(-c3ccnc(Nc4ccccc4)n3)c(-c3ccc(F)cc3)nn2n1
3. CCOc1ccc2c(-c3ccnc(Nc4cccc(C(F)(F)F)c4)n3)cnn2n1
4. Clc1ccc(-c2nn3ncccc3c2-c2ccnc(Nc3ccccc3)n2)cc1

Result block:
1. 1.61
2. -2.14
3. 5.75
4. -0.74

Each molecule below has a recorded value; state its inhibition.
1. Cc1cccc(Nc2ncc(-c3ccccc3)o2)c1
2. CNC(=O)c1cncc(/C=C/c2ccccc2Cl)c1

Result block:
[18.6, 7.46]
